Assay Procedure: doxorubicin toxicity protection in MRP-1 cells – H69AR cells, CellTiter-Glo, duplicate, MRP-1 activator project, pilot screen (AID 807);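 further: compound pretreatment 18-22 h then 72 h combined with doxorubicin; 0% = doxorubicin alone and 100% = vehicle without doxorubicin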
Experimental Setup: H69AR viability with doxorubicin, CellTiter-Glo luminescence; at 10 µM; active compounds read high
Measured Attribute: viability increase (%)

Molecule: CCOC(=O)c1sc2nc(NC(=O)COc3ccccc3)sc2c1C
Measured Attribute: viability increase
Reported Result: 1.51
--
Molecule: O=C(NCc1cccnc1)c1cccc(S(=O)(=O)N2CCOCC2)c1
Measured Attribute: viability increase
Reported Result: 0.32
--
Molecule: CCCCCOC(=O)CSc1nc2c(c(=O)[nH]c(=O)n2C)n1Cc1ccc(Cl)cc1
Measured Attribute: viability increase
Reported Result: -3.26
--
Molecule: Cc1ccc(N=Cc2ccc(O)cc2O)cc1F
Measured Attribute: viability increase
Reported Result: -4.99
--
Molecule: Cc1ccc(-c2nc3cnccn3c2Nc2ccc3c(c2)OCO3)o1
Measured Attribute: viability increase
Reported Result: -3.1
--
Molecule: COc1ccc(OC)c(C2C(C(N)=O)=C(C)Nc3nc(CCCO)nn32)c1 (stereo unspecified)
Measured Attribute: viability increase
Reported Result: 0.09
--
Molecule: O=C1c2ccccc2C(Nc2cccnc2)N1Cc1ccccc1Cl (stereo unspecified)
Measured Attribute: viability increase
Reported Result: -3.57
--
Molecule: O=C(c1ccccc1S(=O)(=O)NCc1ccccc1)N1CCCCC1
Measured Attribute: viability increase
Reported Result: -2.89
--
Molecule: Cc1cc(OCC(=O)NCCO)cc(C)c1Cl
Measured Attribute: viability increase
Reported Result: -0.21
--
Molecule: CC(=O)c1ccc(OCC(O)CN2CCN(CCO)CC2)cc1 (stereo unspecified)
Measured Attribute: viability increase
Reported Result: 1.18
--
Molecule: O=C(COc1ccc(=O)n(-c2ccccc2)n1)Nc1ccccc1
Measured Attribute: viability increase
Reported Result: -1.83
